All values here come from patent US9999622B2.

# Assay target: JAK1 (Homo sapiens, UniProt P23458)
# Construct: purchased Carna Biosciences, Inc
# Sequence (P23458 whole entry): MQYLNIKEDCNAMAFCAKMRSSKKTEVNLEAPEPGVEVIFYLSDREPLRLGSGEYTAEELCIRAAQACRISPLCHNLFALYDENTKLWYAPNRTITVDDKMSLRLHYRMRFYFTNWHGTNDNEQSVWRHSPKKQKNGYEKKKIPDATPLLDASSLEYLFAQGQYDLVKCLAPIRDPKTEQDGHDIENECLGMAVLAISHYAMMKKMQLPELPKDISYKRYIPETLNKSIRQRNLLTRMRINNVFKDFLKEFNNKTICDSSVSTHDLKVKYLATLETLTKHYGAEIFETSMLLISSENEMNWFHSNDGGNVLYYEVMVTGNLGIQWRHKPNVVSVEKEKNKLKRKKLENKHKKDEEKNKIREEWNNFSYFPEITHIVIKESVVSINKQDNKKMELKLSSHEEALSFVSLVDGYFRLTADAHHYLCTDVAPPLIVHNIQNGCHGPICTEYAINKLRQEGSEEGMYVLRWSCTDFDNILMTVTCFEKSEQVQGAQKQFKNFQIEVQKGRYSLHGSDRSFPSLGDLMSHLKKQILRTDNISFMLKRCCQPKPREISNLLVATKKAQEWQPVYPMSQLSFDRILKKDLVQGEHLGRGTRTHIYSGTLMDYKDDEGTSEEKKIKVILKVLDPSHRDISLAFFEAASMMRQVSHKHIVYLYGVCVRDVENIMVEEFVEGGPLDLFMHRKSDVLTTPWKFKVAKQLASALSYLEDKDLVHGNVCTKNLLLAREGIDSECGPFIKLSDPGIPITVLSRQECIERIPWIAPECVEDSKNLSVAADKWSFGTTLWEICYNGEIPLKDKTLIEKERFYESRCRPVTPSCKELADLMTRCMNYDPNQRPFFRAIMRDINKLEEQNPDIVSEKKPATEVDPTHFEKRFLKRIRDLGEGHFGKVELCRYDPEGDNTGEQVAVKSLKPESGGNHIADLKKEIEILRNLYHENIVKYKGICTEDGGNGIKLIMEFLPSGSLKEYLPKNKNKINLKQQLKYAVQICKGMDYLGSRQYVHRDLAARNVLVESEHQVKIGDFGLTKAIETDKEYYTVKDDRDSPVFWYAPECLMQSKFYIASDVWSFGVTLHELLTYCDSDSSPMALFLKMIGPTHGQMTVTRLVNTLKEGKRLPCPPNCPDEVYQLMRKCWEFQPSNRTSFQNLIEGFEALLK
# Test name: JAK tyrosine kinase inhibitory activity in the presence of 1 mM ATP (ELISA), JAK1
# Type: biochemical
Where a name gives a salt, the structure may show the parent alone.
Output class 1 for records whose IC50 is lower than 200 nM, class 0 for records at or above 200 nM.

These solved cases illustrate the format of a correct answer.
molecule=CC[C@@H](C)Nc1cc(C(=O)N2CCC(NC(=O)OC)CC2)nc(-c2cnn3ccsc23)n1 class="class 0"
molecule=COC(=O)NC1CCN(C(=O)c2cc(NCCC3CC3)nc(-c3cnn4ccsc34)n2)CC1 class="class 0"
molecule=CC(C)OC(=O)NC1CCN(C(=O)c2cc(N[C@@H](C)C3CC3)nc(-c3cnn4ccsc34)n2)CC1 class="class 1"

Is IC50 of "COC(=O)NC1CCN(C(=O)c2cc(NC3CCN(C(=O)OC(C)(C)C)CC3)nc(-c3cnn4ccsc34)n2)CC1" strictly below 200 nM?
class 0

Another: CCC(CC)Nc1cc(C(=O)N2CCC(O)CC2)nc(-c2cnn3ccsc23)n1 [Example 81, hydrochloride]
class 0

Again, but for COC(=O)NC1CCN(C(=O)c2cc(N[C@@H](C)C3CC3)nc(-c3cnn4ccsc34)n2)CC1.Cl [Example 27, hydrochloride]
class 1

And C[C@@H](Nc1cc(C(=O)N2CCC(NC(=O)OCC(F)F)CC2)nc(-c2cnn3ccsc23)n1)C(C)(C)C [Example 97, hydrochloride] ?
class 0
